Entry source: patent US12421243B2

METHOD_DESCRIPTION: tissue concentrations after intraperitoneal injection into a live rat
Format: in vivo
STATED_CONDITIONS: liver, ip, 6 mg i.p., 5 min, read-out: Concentration of compound 188 in tissue samples (μM) liver
OBSERVATION_TYPE: concentration at 5 min (µM)
# output: bare number, implied unit µM

Req: Entry O=C1c2ccsc2N=C2N(c3ccc(N4CCOCC4)cc3)CCC12O (stereo not shown) has what concentration at 5 min?
Resp: 30

----------
METHOD_DESCRIPTION: vital parameters of live anesthetized rats monitored during isometric force measurement
Assay type: in vivo
STATED_CONDITIONS: 6 mg i.p., anesthetized rat
OBSERVATION_TYPE: Maximum change of vital parameters (%) respiratory frequency
Write the answer as a number in %, unit excluded.

Req: // Maximum change of vital parameters (%) respiratory frequency lookup, key: O=C1c2ccncc2N=C2N(c3ccc(OC(F)(F)F)cc3)CCC12O (stereo not shown) [Compound 238]
Resp: −18

Req: Look up Maximum change of vital parameters (%) respiratory frequency: O=C1c2ccncc2N=C2N(c3ccccc3)CCC12O (stereo not shown) [Compound 174]
Resp: −20

Req: Any idea what Maximum change of vital parameters (%) respiratory frequency was measured for O=C1c2ccsc2N=C2N(c3ccc(N4CCOCC4)cc3)CCC12O (stereo not shown) [Compound 188] ?
Resp: −1

Req: Could you share which Maximum change of vital parameters (%) respiratory frequency value was measured for Cc1cc2c(s1)N=C1N(c3ccc(N4CCOCC4)cc3)CCC1(O)C2=O (stereo not shown) [Compound 220] ?
Resp: −22

----------
TARGET_UNDER_TEST: isolated smooth muscle myosin (UniProt P10587)
Sequence (P10587 whole entry): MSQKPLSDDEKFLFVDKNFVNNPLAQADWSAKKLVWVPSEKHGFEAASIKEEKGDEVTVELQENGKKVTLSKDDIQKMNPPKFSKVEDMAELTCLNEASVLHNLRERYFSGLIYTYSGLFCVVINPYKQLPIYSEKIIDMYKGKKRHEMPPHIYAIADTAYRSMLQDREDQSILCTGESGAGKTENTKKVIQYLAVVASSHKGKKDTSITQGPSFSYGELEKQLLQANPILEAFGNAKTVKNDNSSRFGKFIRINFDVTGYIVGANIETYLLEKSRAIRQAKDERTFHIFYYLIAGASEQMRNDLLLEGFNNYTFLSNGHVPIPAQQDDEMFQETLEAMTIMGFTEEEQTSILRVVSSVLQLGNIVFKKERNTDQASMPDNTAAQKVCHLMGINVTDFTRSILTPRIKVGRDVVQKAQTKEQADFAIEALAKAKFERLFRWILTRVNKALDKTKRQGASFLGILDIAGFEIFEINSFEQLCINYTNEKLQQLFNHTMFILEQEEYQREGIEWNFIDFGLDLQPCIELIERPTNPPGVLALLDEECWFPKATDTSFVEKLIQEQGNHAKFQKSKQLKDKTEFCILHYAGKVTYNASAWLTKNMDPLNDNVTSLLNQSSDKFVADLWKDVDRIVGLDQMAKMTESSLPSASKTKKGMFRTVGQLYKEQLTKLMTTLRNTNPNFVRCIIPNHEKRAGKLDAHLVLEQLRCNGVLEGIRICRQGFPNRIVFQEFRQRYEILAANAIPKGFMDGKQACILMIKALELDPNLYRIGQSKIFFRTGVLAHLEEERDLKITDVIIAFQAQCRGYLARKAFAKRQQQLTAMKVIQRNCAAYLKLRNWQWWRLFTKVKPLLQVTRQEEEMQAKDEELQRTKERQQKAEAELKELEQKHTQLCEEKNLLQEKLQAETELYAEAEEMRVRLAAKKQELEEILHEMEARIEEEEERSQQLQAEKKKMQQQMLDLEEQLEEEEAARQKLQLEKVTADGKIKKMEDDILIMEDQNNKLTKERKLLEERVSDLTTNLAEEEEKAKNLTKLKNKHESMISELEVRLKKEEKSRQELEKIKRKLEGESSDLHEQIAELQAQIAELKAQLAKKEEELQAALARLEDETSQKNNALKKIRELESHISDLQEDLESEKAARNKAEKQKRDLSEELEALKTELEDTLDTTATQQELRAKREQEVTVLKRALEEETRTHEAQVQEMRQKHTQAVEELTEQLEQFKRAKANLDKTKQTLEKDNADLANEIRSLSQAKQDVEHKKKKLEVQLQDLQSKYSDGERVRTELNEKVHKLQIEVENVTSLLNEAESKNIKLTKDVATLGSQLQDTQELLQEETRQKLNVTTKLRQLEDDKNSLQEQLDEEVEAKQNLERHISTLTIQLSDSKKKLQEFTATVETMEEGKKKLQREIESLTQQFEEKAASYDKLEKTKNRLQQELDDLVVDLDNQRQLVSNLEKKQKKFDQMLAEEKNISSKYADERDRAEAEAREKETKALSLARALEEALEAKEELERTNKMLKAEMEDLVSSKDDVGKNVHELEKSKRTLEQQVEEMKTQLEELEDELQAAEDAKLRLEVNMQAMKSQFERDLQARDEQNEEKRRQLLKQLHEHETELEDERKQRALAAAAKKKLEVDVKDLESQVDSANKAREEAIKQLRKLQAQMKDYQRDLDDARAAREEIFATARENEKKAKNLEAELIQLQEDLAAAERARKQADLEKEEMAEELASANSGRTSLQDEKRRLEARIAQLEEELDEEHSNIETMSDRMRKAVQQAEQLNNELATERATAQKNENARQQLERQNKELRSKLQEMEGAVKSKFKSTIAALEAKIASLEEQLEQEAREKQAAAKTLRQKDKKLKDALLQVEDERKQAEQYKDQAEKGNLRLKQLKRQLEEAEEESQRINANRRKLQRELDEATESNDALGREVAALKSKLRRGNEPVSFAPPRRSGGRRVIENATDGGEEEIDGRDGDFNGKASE
Type: biochemical, chamois
STATED_CONDITIONS: 5 μM (10 μM if racemate); ATPase activity
Cut-off 30% on % inhibition at 5 μM (or 10 μM if racemate) Smooth, inclusive. At or above means 1; below means 0.

Req: Determine whether this compound has % inhibition at 5 μM (or 10 μM if racemate) Smooth no lower than 30%: O=C1c2ccsc2N=C2N(c3cccs3)CC[C@@]12O [Compound 218]
Resp: 0

Req: Record Cc1cc2c(s1)N=C1NCCC1(O)C2=O (centres unmarked) [Compound 231] ; criterion: % inhibition at 5 μM (or 10 μM if racemate) Smooth no lower than 30%. Met?
Resp: 0

Req: Determine whether measured % inhibition at 5 μM (or 10 μM if racemate) Smooth meets or exceeds 30% for Cc1cc2c(s1)N=C1N(c3cccs3)CC[C@@]1(O)C2=O [Compound 208]
Resp: 0

Req: Can Cc1cc2c(s1)N=C1N(c3ccc(CC#N)cc3)CCC1(O)C2=O (centres unmarked) [Compound 226] be said to have % inhibition at 5 μM (or 10 μM if racemate) Smooth at or above 30%?
Resp: 1

Req: Confirm if % inhibition at 5 μM (or 10 μM if racemate) Smooth reported for the compound Cc1nsc2c1C(=O)C1(O)CCN(c3ccccc3)C1=N2 (centres unmarked) [Compound 206] is 30% or above.
Resp: 0

Req: Does the compound CC(=O)c1ccc(N2CCC3(O)C(=O)c4ccncc4N=C23)cc1 (centres unmarked) [Compound 240] have recorded % inhibition at 5 μM (or 10 μM if racemate) Smooth that is 30% or more?
Resp: 0

Req: Could you verify whether the entry CC(=O)c1ccc(N2CC[C@@]3(O)C(=O)c4ccsc4N=C23)cc1 [Compound 214] shows % inhibition at 5 μM (or 10 μM if racemate) Smooth of no less than 30%?
Resp: 0

Req: Could you please find out whether N#Cc1ccc(N2CC[C@@]3(O)C(=O)c4ccsc4N=C23)cc1 [Compound 213] has % inhibition at 5 μM (or 10 μM if racemate) Smooth that meets 30% or exceeds it?
Resp: 0

Req: % inhibition at 5 μM (or 10 μM if racemate) Smooth >= 30% for N#CCc1ccc(N2CC[C@@]3(O)C(=O)c4ccsc4N=C23)cc1 [Compound 215] ?
Resp: 1

Req: In plain terms: is recorded % inhibition at 5 μM (or 10 μM if racemate) Smooth at least 30% for Cc1cc2c(s1)N=C1N(c3cccs3)CCC1(O)C2=O (centres unmarked) [Compound 229] ?
Resp: 1

Req: # check: % inhibition at 5 μM (or 10 μM if racemate) Smooth of Cc1cc2c(s1)N=C1N(c3ccccc3)CCC1(O)C2=O (centres unmarked) [Compound 198] is greater than or equal to 30%
Resp: 1

----------
METHOD_DESCRIPTION: tissue concentrations after intraperitoneal injection into a live rat
Type: in vivo
STATED_CONDITIONS: brain, ip, 6 mg i.p., 60 min, read-out: Concentration of compound 188 in tissue samples (μM) brain
OBSERVATION_TYPE: concentration at 60 min
Write the numeric value and append its unit.

Req: Reported concentration at 60 min, molecule O=C1c2ccsc2N=C2N(c3ccc(N4CCOCC4)cc3)CCC12O (stereo not shown) : ____
Resp: 5 µM

----------
Exercise: for every item that follows, state its recorded % inhibition. complete cardiac.
TARGET_UNDER_TEST: isolated porcine cardiac ventricular myocardium (cardiac) (Sus scrofa)
Construct: isolated porcine cardiac ventricular myocardium (cardiac); from tissue; host or cells: porcine cardiac ventricle
Sequence (P79293 whole entry): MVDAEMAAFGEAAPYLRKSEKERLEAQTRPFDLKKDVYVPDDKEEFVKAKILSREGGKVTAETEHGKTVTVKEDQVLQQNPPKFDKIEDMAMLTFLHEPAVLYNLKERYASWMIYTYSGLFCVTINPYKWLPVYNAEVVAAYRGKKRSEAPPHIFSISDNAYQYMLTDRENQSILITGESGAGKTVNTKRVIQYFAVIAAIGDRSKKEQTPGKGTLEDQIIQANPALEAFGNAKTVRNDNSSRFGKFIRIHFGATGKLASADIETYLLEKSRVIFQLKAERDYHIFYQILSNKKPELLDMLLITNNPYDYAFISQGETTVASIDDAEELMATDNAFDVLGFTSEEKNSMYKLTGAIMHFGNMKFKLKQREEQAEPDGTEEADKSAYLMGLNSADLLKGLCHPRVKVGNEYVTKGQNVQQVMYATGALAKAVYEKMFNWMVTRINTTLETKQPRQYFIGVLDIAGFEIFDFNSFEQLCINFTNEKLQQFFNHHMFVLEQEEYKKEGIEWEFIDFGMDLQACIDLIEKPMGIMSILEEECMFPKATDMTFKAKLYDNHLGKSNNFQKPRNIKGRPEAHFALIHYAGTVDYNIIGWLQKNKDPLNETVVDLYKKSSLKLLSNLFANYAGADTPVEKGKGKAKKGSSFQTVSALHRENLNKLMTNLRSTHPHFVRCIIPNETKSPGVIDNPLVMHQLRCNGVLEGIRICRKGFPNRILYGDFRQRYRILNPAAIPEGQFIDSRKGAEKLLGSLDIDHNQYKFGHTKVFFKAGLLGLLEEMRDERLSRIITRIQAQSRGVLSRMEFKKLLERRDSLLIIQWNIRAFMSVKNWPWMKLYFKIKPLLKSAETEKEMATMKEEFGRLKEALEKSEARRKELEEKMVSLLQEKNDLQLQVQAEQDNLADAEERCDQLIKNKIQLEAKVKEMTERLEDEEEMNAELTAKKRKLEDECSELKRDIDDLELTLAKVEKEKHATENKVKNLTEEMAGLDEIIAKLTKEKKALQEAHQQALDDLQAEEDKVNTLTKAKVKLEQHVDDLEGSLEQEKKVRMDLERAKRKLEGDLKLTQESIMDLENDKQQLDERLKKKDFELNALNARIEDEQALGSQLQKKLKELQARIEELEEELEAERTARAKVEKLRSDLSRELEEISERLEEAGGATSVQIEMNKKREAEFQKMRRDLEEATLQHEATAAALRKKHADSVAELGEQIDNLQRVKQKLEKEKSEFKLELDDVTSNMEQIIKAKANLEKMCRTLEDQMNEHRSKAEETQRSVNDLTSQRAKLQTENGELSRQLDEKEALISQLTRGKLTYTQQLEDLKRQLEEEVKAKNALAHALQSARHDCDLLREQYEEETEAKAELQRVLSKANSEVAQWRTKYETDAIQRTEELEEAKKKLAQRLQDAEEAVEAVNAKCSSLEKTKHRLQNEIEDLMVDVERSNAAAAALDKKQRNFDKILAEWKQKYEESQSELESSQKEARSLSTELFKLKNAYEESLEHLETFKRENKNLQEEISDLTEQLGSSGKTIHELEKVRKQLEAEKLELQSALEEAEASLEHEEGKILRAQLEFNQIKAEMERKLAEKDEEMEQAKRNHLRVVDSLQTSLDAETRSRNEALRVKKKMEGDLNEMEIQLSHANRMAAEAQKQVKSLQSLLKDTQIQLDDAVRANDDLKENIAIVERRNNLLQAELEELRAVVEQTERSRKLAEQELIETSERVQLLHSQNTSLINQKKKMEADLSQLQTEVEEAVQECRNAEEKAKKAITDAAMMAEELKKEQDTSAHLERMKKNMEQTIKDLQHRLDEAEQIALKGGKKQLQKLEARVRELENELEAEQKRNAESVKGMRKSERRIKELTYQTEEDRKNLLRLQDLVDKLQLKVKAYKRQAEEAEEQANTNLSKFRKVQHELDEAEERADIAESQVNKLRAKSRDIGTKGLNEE
METHOD_DESCRIPTION: actomyosin steady state ATPase measurement, cardiac myosin
Type: biochemical
STATED_CONDITIONS: maximum value of inhibition of ATPase activity
Answer format: numeric, % implied, no suffix.

Req: Item O=C1c2ccsc2N=C2N(c3ccc(CO)cc3)CC[C@@]12O [Compound 216] with isolated porcine cardiac ventricular myocardium (cardiac) (Sus scrofa) - % inhibition. complete cardiac?
Resp: 89

Req: Look up % inhibition. complete cardiac with isolated porcine cardiac ventricular myocardium (cardiac) (Sus scrofa) for this molecule: Cc1nsc2c1C(=O)C1(O)CCN(c3ccccc3)C1=N2 (stereo not drawn) [Compound 206]
Resp: 47

Req: Find % inhibition. complete cardiac (isolated porcine cardiac ventricular myocardium (cardiac) (Sus scrofa)) for the entry O=C1c2ccncc2N=C2N(c3ccc(N4CCOCC4)cc3)CCC12O (stereo not drawn) [Compound 248]
Resp: 2

Req: Please provide the recorded % inhibition. complete cardiac for Cc1cc2c(s1)N=C1N(c3ccccc3)CCC1(O)C2=O (stereo not drawn) [Compound 198] , tested on isolated porcine cardiac ventricular myocardium (cardiac) (Sus scrofa).
Resp: 100

Req: Query % inhibition. complete cardiac on isolated porcine cardiac ventricular myocardium (cardiac) (Sus scrofa) for CN(C)c1ccc(N2CCC3(O)C(=O)c4ccncc4N=C23)cc1 (stereo not drawn) [Compound 251]
Resp: 15

Req: Return % inhibition. complete cardiac measured with isolated porcine cardiac ventricular myocardium (cardiac) (Sus scrofa) given this molecule: O=C1c2ccncc2N=C2N(c3ccc(OC(F)(F)F)cc3)CCC12O (stereo not drawn) [Compound 238]
Resp: 100

Req: Form entry - test system: isolated porcine cardiac ventricular myocardium (cardiac) (Sus scrofa); read-out: % inhibition. complete cardiac; molecule: COc1ccc(N2CCC3(O)C(=O)c4cc(C)sc4N=C23)cc1 (stereo not drawn) [Compound 222]
Resp: 93

Req: API: value(readout=% inhibition. complete cardiac, system=isolated porcine cardiac ventricular myocardium (cardiac) (Sus scrofa)) for record Cc1cc2c(s1)N=C1N(c3ccc(N4CCOCC4)cc3)CCC1(O)C2=O (stereo not drawn) [Compound 220]
Resp: 39

Req: GET /values?readout=% inhibition. complete cardiac&system=isolated porcine cardiac ventricular myocardium (cardiac) (Sus scrofa)&item= CN(C)c1ccc(N2CC[C@@]3(O)C(=O)c4ccsc4N=C23)cc1 [Compound 249]
Resp: 90

----------
METHOD_DESCRIPTION: tissue concentrations after intraperitoneal injection into a live rat
Type: in vivo
STATED_CONDITIONS: blood, ip, 6 mg i.p., 45 min, read-out: Concentration of compound 188 in tissue samples (μM) blood
OBSERVATION_TYPE: concentration at 45 min (µM)
# number only, unit µM dropped from output

Req: Name the reported concentration at 45 min value associated with the compound O=C1c2ccsc2N=C2N(c3ccc(N4CCOCC4)cc3)CCC12O (stereo not shown)
Resp: 10

----------
TARGET_UNDER_TEST: recombinant Dictyostelium miozin (Dictyostelium) (Dictyostelium discoideum, UniProt P08799)
METHOD_DESCRIPTION: actomyosin steady state ATPase measurement, Dictyostelium myosin
Assay type: biochemical
STATED_CONDITIONS: read-out: % inhibition at 50 μM (or 100 μM if racemate) Dicty
Excerpt: […]; (ii) the concentration required for semi-maximal inhibition.
OBSERVATION_TYPE: inhibition at 50 µM (%)
Report the value in % with no unit label.

Req: GET /values?readout=inhibition at 50 µM&item= O=C1c2ccncc2N=C2N(c3ccc(OC(F)(F)F)cc3)CCC12O (stereo not shown) [Compound 238]
Resp: 38

Req: Requested field: inhibition at 50 µM. Item: O=C1c2sccc2N=C2N(c3ccccc3)CCC12O (stereo not shown) [Compound 183]
Resp: 80

Req: For the compound Cc1cc2c(s1)N=C1N(c3ccc(N)cc3)CCC1(O)C2=O (stereo not shown) [Compound 221] , what inhibition at 50 µM is on record?
Resp: 85

Req: Request the reported inhibition at 50 µM associated with CC(=O)c1ccc(N2CCC3(O)C(=O)c4cc(C)sc4N=C23)cc1 (stereo not shown) [Compound 225]
Resp: 97

Req: Return reported inhibition at 50 µM; argument: Cc1cc2c(s1)N=C1N(c3cccs3)CCC1(O)C2=O (stereo not shown) [Compound 229]
Resp: 95

Req: // query inhibition at 50 µM value for entry Cc1cc2c(s1)N=C1N(c3ccc(CC#N)cc3)CCC1(O)C2=O (stereo not shown) [Compound 226]
Resp: 83

Req: Returns the measured inhibition at 50 µM for the input compound. Input: O=C1c2ccsc2N=C2N(c3ccc(N4CCOCC4)cc3)CCC12O (stereo not shown) [Compound 188]
Resp: 15

Req: I would be grateful if you could share the reported inhibition at 50 µM for CC(=O)c1ccc(N2CCC3(O)C(=O)c4ccncc4N=C23)cc1 (stereo not shown) [Compound 240] .
Resp: 26

Req: Dear colleague, I am looking for the recorded inhibition at 50 µM of the following compound: CN(C)c1ccc(N2CC[C@@]3(O)C(=O)c4ccsc4N=C23)cc1 [Compound 249]
Resp: 39

Req: Consider the compound shown here: Cc1cc2c(s1)N=C1N(c3ccc(N(C)C)cc3)CCC1(O)C2=O (stereo not shown) [Compound 250] What is its recorded inhibition at 50 µM?
Resp: 50
